The binders listed here are annotated with their cAMP production (pmol/ml/µg prt) with saturated glucagon peptide, at 10 nM.
# system under test: human glucagon receptor (human, UniProt P47871 26-477)
# Sequence (P47871 26-477): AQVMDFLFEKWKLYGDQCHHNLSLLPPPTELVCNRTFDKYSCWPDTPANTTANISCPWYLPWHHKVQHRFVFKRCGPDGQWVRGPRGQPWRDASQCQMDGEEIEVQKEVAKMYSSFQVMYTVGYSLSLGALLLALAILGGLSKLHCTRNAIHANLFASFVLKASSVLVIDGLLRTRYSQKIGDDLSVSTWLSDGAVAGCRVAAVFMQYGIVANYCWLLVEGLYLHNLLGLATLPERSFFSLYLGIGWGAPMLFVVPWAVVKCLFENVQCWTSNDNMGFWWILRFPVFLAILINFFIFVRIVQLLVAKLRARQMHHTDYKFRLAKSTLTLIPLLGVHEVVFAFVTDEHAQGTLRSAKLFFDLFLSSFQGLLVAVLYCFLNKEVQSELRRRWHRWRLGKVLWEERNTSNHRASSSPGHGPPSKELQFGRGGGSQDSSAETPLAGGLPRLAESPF
# experimental details: cell-based or functional assay
Where no end group is shown, it is not given here. [ ]: non-standard residue; d: D form. Bip(2'-Et-4'-OMe) = CCc1cc(OC)ccc1-c1ccc(C[C@H](N)C(=O)O)cc1; αMePhe(2,6-F2) = C[C@](N)(Cc1c(F)cccc1F)C(=O)O; αMePhe(2-F) = C[C@](N)(Cc1ccccc1F)C(=O)O; αMeBip(OMe) = alpha-methylated Bip(OMe); hhPhe = N[C@@H](CCCc1ccccc1)C(=O)O; αMeD = C[C@](N)(CC(=O)O)C(=O)O; αMeP = C[C@@]1(C(=O)O)CCCN1; αMeAPPA = not defined here; αMeS = C[C@](N)(CO)C(=O)O; Aib = CC(C)(N)C(=O)O
Value expressed in pmol/ml/µg prt; do not type the unit.

VH[αMeP]QGT[αMePhe(2,6-F2)]TS[αMeD][αMeBip(OMe)][αMeAPPA] (not fully specified (C-terminus); reading uncertain) [Seq. ID. No. 200]    8
VHAEGT[αMePhe(2,6-F2)]TSD[αMeBip(OMe)][hhPhe]-NH2 [Seq. ID. No. 30]    3
VVHSEGT[αMePhe(2-F)]TSD[αMeBip(OMe)][hhPhe]-NH2 [Seq. ID. No. 217]    2
VH[Aib]EGTFTSD[αMeBip(OMe)][hhPhe] (not fully specified (C-terminus); printed as VH-Aib-EGTFTSD-(αMe-Bip(OMe))-(APPA)) [Seq. ID. No. 13]    18

Switching to the query record.
What value of measured cAMP production (pmol/ml/µg prt) with saturated glucagon peptide, at 10 nM is listed for VH[Aib]EGTFT[αMeS][αMeD][Bip(2'-Et-4'-OMe)][αMeAPPA] (not fully specified (C-terminus); printed as VH-Aib-EGTFT-(αMe-Ser)-(αMe-Asp)-Bip(OMe)-(αMe-APPA); reading uncertain) [Seq. ID. No. 113] ?
2
